system.name: T1, TNFR1 (Homo sapiens, UniProt P19438)
T1 chain: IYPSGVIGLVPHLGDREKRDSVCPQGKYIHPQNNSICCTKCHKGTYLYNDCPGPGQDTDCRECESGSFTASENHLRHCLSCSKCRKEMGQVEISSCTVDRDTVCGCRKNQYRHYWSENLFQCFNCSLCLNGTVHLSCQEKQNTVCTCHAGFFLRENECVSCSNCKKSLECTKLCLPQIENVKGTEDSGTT
protocol.description: yeast display SC50

{"columns": ["binder", "scale.unit", "apparent Kd (screen)"],
 "data": [
  ["A67G (designed binder) SMEEEVEKAAKEYEKKKKEAIEKHLEKLKAKDKEAAERFLKELEEAAKEYAKDEAKTMSEEEAKRRGKKYKEKVLLSELSEEEQKEIKEAEEKLVRTILKYVEEAAK", "nM", 0.49],
  ["E5W (designed binder) SMEEWVEKAAKEYEKKKKEAIEKHLEKLKAKDKEAAERFLKELEEAAKEYAKDEAKTMSEEEAKRRAKKYKEKVLLSELSEEEQKEIKEAEEKLVRTILKYVEEAAK", "nM", 0.539],
  ["E62I (designed binder) SMEEEVEKAAKEYEKKKKEAIEKHLEKLKAKDKEAAERFLKELEEAAKEYAKDEAKTMSEEIAKRRAKKYKEKVLLSELSEEEQKEIKEAEEKLVRTILKYVEEAAK", "nM", 2.73],
  ["K107L (designed binder) SMEEEVEKAAKEYEKKKKEAIEKHLEKLKAKDKEAAERFLKELEEAAKEYAKDEAKTMSEEEAKRRAKKYKEKVLLSELSEEEQKEIKEAEEKLVRTILKYVEEAAL", "nM", 2.73],
  ["V74N (designed binder) SMEEEVEKAAKEYEKKKKEAIEKHLEKLKAKDKEAAERFLKELEEAAKEYAKDEAKTMSEEEAKRRAKKYKEKNLLSELSEEEQKEIKEAEEKLVRTILKYVEEAAK", "nM", 16.7],
  ["E3V (designed binder) SMVEEVEKAAKEYEKKKKEAIEKHLEKLKAKDKEAAERFLKELEEAAKEYAKDEAKTMSEEEAKRRAKKYKEKVLLSELSEEEQKEIKEAEEKLVRTILKYVEEAAK", "nM", 1.69],
  ["E82L (designed binder) SMEEEVEKAAKEYEKKKKEAIEKHLEKLKAKDKEAAERFLKELEEAAKEYAKDEAKTMSEEEAKRRAKKYKEKVLLSELSELEQKEIKEAEEKLVRTILKYVEEAAK", "nM", 0.718],
  ["V6A (designed binder) SMEEEAEKAAKEYEKKKKEAIEKHLEKLKAKDKEAAERFLKELEEAAKEYAKDEAKTMSEEEAKRRAKKYKEKVLLSELSEEEQKEIKEAEEKLVRTILKYVEEAAK", "nM", 0.539]
]}
